The values you see were collected from patent US9839642B2.

biological target: NDM-1 (Klebsiella pneumoniae); assay: Enzyme activity: determination of IC50, fluorescence assay with CCF2-FA substrate; assay type: biochemical; settings: enzyme 1 pM, CCF2-FA 1.25 μM, 2 hours at 25° C.; read-out: NDM1 IC50
Sequence (C7C422 29-270, looked up, species assumed): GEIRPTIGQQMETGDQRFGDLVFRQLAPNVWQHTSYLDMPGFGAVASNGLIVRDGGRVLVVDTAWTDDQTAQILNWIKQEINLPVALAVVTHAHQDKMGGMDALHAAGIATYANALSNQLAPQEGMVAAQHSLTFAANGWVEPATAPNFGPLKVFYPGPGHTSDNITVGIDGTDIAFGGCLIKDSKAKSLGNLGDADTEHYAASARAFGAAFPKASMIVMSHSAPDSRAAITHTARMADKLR
Entries and their log10 of IC50 values follow.
value_kind: log10 of IC50 (log10 of the value in nM)

{"columns": ["compound", "result"],
 "data": [
  ["CCC[C@H](C(=O)O)[C@H](Cc1cccnc1Cl)c1nnn[nH]1 [Example 87]", 2.48],
  ["NC(=O)CCCC[C@H](C(=O)O)[C@H](Cc1ccccc1)c1nnn[nH]1 [Example 35]", 3.15],
  ["CC(C)[C@H](C(=O)O)[C@H](Cc1cccc(Br)n1)c1nnn[nH]1 [Example 92]", 2.04],
  ["CCC[C@H](C(=O)O)[C@H](Cc1ccc(-c2ccncc2)cc1)c1nn[nH]n1 [Example 198]", 1.15],
  ["CCC[C@H](C(=O)O)[C@H](Cc1ccccn1)c1nn[nH]n1 [Example 154]", 2.63],
  ["CC(C)[C@H](C(=O)O)[C@H](Cc1ccc(N)cn1)c1nnn[nH]1 [Example 125]", 2.23],
  ["CCC[C@H](C(=O)O)[C@H](Cc1ccc(N)nc1)c1nnn[nH]1 [Example 114]", 2.26],
  ["CCC[C@H](C(=O)O)[C@H](Cc1cccc(C(=O)O)n1)c1nnn[nH]1 [Example 94]", 3.65],
  ["CC(C)C[C@H](C(=O)O)[C@H](Cc1ccc(C2CCNCC2)cn1)c1nnn[nH]1 [Example 101]", 2.11],
  ["CCC[C@H](C(=O)O)[C@H](Cc1ccc(NCCN2CCCC(O)C2)cc1)c1nn[nH]n1 (some centres unmarked) [Example 220]", 2.56],
  ["CCC[C@H](C(=O)O)[C@H](Cc1ccc(-c2csc(N3CCOCC3)n2)cc1)c1nn[nH]n1 [Example 208]", 1.79],
  ["O=C(O)[C@@H](CC1CC1)[C@H](Cc1ccccc1)c1nnn[nH]1 [Example 13]", 2.11],
  ["CCCCC[C@H](C(=O)O)[C@H](Cc1ccc2c(c1)OCO2)c1nnn[nH]1 [Example 39]", 1.93],
  ["CC(C)CCC[C@H](C(=O)O)[C@H](Cc1ccccc1)c1nnn[nH]1 [Example 1]", 2.94],
  ["O=C(O)[C@@H](C1CCCC1)[C@H](Cc1ccc(C2=CCNC2)cc1)c1nnn[nH]1 [Example 61]", 1.51],
  ["CCC[C@H](C(=O)O)[C@H](Cc1ccc(-c2nnn[nH]2)cc1)c1nn[nH]n1 [Example 44]", 1.32],
  ["CC[C@H](C)[C@H](C(=O)O)[C@H](Cc1ccc(C2CCNC2)cc1)c1nnn[nH]1 (some centres unmarked) [Example 81]", 1.66]
]}
